Study target: TCP1 (Homo sapiens)
Construct: commercial recombinant TCP1 (Abnova), isolated subunit, amine-coupled to CM5 chip; PDB 4B2T was only the docking model
Sequence (P17987 whole entry): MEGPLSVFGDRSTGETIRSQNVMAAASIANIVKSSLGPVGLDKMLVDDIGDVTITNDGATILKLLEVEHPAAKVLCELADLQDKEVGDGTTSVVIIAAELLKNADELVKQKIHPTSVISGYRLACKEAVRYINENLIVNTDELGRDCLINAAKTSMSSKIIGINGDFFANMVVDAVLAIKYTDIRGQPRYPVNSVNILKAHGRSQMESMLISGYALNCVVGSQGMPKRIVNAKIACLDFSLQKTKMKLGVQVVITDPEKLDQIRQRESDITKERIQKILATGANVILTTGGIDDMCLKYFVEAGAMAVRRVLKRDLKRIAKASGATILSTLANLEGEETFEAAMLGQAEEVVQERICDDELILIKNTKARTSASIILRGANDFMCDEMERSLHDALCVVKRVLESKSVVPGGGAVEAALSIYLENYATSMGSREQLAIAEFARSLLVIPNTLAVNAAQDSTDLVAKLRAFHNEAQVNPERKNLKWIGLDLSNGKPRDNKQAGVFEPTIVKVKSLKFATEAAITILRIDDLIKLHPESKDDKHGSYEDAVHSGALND
Protocol: SPR (Biacore T200, CM5 chip, TCP1 amine-coupled)
Observed property: Kd

Task: Provide Kd, recorded with TCP1 (Homo sapiens), of CCCCCCCCc1ccc(CCC(N)(CO)CO)cc1
Output: 6.77 nM
